target: UniProt:P15144; test: In vitro inhibition of aminopeptidase N (APN) activity in intact U937 cells in presence of Ala-pNA and 10e-3 M concentration of compound; assay type: cell-based; conditions: U-937
Sequence (P15144 whole entry): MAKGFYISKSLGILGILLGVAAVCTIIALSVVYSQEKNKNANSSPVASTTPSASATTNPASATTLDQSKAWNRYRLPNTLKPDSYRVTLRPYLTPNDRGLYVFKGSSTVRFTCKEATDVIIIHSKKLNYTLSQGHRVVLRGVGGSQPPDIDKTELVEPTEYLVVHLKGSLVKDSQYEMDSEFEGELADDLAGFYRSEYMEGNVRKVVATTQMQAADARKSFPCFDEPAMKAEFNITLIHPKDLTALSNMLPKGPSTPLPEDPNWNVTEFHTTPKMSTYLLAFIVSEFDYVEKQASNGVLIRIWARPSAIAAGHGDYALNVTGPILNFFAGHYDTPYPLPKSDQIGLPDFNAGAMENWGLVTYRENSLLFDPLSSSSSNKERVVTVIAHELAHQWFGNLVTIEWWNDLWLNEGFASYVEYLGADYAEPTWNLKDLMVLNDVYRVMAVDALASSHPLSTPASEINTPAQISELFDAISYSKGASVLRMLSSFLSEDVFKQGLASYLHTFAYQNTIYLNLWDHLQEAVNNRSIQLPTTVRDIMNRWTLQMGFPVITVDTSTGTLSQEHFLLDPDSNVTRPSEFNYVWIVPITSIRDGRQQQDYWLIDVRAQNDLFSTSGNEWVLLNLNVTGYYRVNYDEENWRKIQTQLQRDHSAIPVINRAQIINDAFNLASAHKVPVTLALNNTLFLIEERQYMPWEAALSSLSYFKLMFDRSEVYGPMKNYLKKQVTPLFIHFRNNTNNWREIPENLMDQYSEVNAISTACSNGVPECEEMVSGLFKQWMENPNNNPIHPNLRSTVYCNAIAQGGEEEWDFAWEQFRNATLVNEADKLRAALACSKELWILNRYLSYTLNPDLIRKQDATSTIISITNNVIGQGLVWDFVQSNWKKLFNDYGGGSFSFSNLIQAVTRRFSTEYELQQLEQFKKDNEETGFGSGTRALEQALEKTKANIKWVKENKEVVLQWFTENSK
# if value of inhibition reaches 60%, tag label 1; if it stays below, tag label 0

Below are worked cases with known answers.
Problem: Is reported inhibition greater than or equal to 60% here: COC(=O)c1ccccc1-c1oc2c(CC(=O)O)cccc2c(=O)c1[N+](=O)[O-]
Solution: label 1

Problem: Given the entry COc1ccc(-c2oc3c(CC(=O)O)cccc3c(=O)c2[N+](=O)[O-])cc1 , answer whether its inhibition meets or surpasses 60%.
Solution: label 1

More entries:
Problem: Given O=C(O)Cc1cccc2c(=O)cc(-c3ccccc3[N+](=O)[O-])oc12 , state whether its inhibition is at least 60%.
Solution: label 1

Problem: Would you say O=C(O)Cc1cccc2c(=O)c([N+](=O)[O-])c(-c3ccccc3C(=O)OCc3ccccc3)oc12 shows inhibition at minimum 60%?
Solution: label 1

Problem: Check the entry C=CCc1cccc2c(=O)c([N+](=O)[O-])c(-c3ccccc3[N+](=O)[O-])oc12 : does inhibition equal or exceed 60%?
Solution: label 0

Problem: Record COCOC(=O)Cc1cccc2c(=O)c(N)c(-c3ccccc3O)oc12 ; criterion: inhibition no lower than 60%. Met?
Solution: label 0
